Hey, just so you know, these numbers are from paper PMC8268581.

target: PfDHODH (Plasmodium falciparum); construct: encoding amino acid residues 158 to 569 fused to a His6-SUMO tag in its N-terminus; His6-SUMO (N, cleaved yes); made in house; host or cells: E. coli BL21 Star (DE3), pETSUMO/PfDHODH; experiment: PfDHODH inhibition assay (DCIP end-point, 384-well); type: biochemical; details: recombinant tag-free PfDHODH, 20 min, serial dilutions 0.0007-22.7 µM; read-out: IC50 DHODH Pf
Parameter Measured: IC50 (nM)

[[record]]
compound = "CCc1cccc(-c2ccc3c(c2)SC(=N)N2CCCN=C32)c1 [Compound 25]"
test_system = "PfDHODH (Plasmodium falciparum)"
parameter_measured = "IC50"
value_observed = 1520

[[record]]
compound = "N=C1Sc2ccc(-c3ccccc3)cc2C2=NCCCN12 [Compound 9]"
test_system = "PfDHODH (Plasmodium falciparum)"
parameter_measured = "IC50"
value_observed = 760

[[record]]
compound = "C#CCOCc1ccc(C(=O)c2ccc(-c3ccc4c(c3)SC(=N)N3CCCN=C43)cc2)cc1 [Compound 20]"
test_system = "PfDHODH (Plasmodium falciparum)"
parameter_measured = "IC50"
value_observed = 1210

[[record]]
compound = "N=C1Sc2cc3ccccc3cc2C2=NCCCN12 [Compound 11]"
test_system = "PfDHODH (Plasmodium falciparum)"
parameter_measured = "IC50"
value_observed = 6420

[[record]]
compound = "CC(C)Oc1cccc(-c2ccc3c(c2)SC(=N)N2CCCN=C32)c1 [Compound 22]"
test_system = "PfDHODH (Plasmodium falciparum)"
parameter_measured = "IC50"
value_observed = 1560

[[record]]
compound = "COC(=O)c1ccc(-c2ccc3c(c2)SC(=N)N2CCCN=C32)cc1 [Compound 13]"
test_system = "PfDHODH (Plasmodium falciparum)"
parameter_measured = "IC50"
value_observed = 1220

[[record]]
compound = "c1cncc(-c2ccc3c(c2)SN2CCCN=C32)c1 [Compound 35]"
test_system = "PfDHODH (Plasmodium falciparum)"
parameter_measured = "IC50"
value_observed = 1480

[[record]]
compound = "O=[N+]([O-])c1ccccc1-c1ccc2c(c1)SN1CCCN=C21 [Compound 43]"
test_system = "PfDHODH (Plasmodium falciparum)"
parameter_measured = "IC50"
value_observed = 1150

[[record]]
compound = "CC(=O)NCCCCCOc1cccc(-c2ccc3c(c2)SC(=N)N2CCCN=C32)c1 [Compound 26]"
test_system = "PfDHODH (Plasmodium falciparum)"
parameter_measured = "IC50"
value_observed = 3490


====

molecular target: PfDHODH (Plasmodium falciparum, UniProt Q08210); construct: encoding amino acid residues 158 to 569 fused to a His6-SUMO tag in its N-terminus; His6-SUMO (N, cleaved yes); made in house; host or cells: E. coli BL21 Star (DE3), pETSUMO/PfDHODH; assay: PfDHODH inhibition assay (DCIP end-point, 384-well); format: biochemical; settings: recombinant tag-free PfDHODH, 20 min, serial dilutions 0.0007-22.7 µM; read-out: IC50 DHODH Pf
Sequence (Q08210 158-569): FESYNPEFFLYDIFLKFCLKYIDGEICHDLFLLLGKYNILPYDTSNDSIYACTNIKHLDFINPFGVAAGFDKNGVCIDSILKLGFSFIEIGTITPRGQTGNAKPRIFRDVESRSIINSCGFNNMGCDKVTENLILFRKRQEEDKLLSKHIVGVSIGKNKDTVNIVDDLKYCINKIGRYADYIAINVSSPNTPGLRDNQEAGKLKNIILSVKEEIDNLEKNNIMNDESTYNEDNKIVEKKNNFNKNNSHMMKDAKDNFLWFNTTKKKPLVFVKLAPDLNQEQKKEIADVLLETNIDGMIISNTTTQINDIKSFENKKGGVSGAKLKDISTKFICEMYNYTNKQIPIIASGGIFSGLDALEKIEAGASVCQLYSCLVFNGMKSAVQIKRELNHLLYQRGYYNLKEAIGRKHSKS
pIC50: −log10 of the molar value.
Parameter Measured: pIC50

[[record]]
record_smiles = "N=C1Sc2cc(-c3ccc(C(N)=O)cc3)ccc2C2=NCCCN12"
parameter_measured = "pIC50"
value_observed = 5.74

[[record]]
record_smiles = "FC(F)(F)c1ccc2c(c1)SN1CCCN=C21"
parameter_measured = "pIC50"
value_observed = 5.01

[[record]]
record_smiles = "c1ccc(-c2ccc3c(c2)SN2CCCN=C32)cc1"
parameter_measured = "pIC50"
value_observed = 5.37

[[record]]
record_smiles = "N=C1Sc2cc(-c3ccc4ccccc4c3)ccc2C2=NCCCN12"
parameter_measured = "pIC50"
value_observed = 6.19

[[record]]
record_smiles = "N=C1Sc2cc(-c3cccc([N+](=O)[O-])c3)ccc2C2=NCCCN12"
parameter_measured = "pIC50"
value_observed = 5.43

[[record]]
record_smiles = "CC(=O)Nc1ccc2c(c1)SN1CCCN=C21"
parameter_measured = "pIC50"
value_observed = 4.73

[[record]]
record_smiles = "Oc1ccc(-c2ccc3c(c2)SN2CCCN=C32)cc1"
parameter_measured = "pIC50"
value_observed = 5.74

[[record]]
record_smiles = "N=C1Sc2cc(-c3cccc4ccccc34)ccc2C2=NCCCN12"
parameter_measured = "pIC50"
value_observed = 6.07

[[record]]
record_smiles = "COc1ccccc1-c1ccc2c(c1)SN1CCCN=C21"
parameter_measured = "pIC50"
value_observed = 5.93

[[record]]
record_smiles = "c1ccc2c(-c3ccc4c(c3)SN3CCCN=C43)cccc2c1"
parameter_measured = "pIC50"
value_observed = 5.96

